System: SK-MEL-5 melanoma
test: NCI-60 one-dose screen, 48 h
recordedConditions: 10 µM unless noted
The panel holds about 83,000 compounds, 20% with a hit somewhere; the sample as a whole holds those more often. Calls of active or inactive are those of the source. Rule for the calls: active = growth percent below 10; inactive = the rest.
// allowed return values: YES for active, NO for inactive

Below are worked cases with known answers.
{"columns": ["compound", "studyTarget", "discreteLabel"],
 "data": [
  ["c1ccc2c(c1)CCCc1nnc3nc4ccccc4n3c1-2", "SK-MEL-5 melanoma", "NO"],
  ["C[n+]1ccc(CCc2c[nH]c3ccccc23)cc1", "SK-MEL-5 melanoma", "NO"],
  ["O=C(N=Nc1c(O)[nH]c2ccccc12)Nc1ccc(F)cc1", "SK-MEL-5 melanoma", "NO"]
]}

**Q:** Returns: the outcome recorded for "C=C(C)[C@@H]1CCC[C@]2(C(=O)N3CCN(C)CC3)CC[C@]3(C)[C@@H](CC[C@@H]4[C@@]5(C)CC/C(=N\NC(=O)c6ccncc6)C(C)(C)[C@@H]5CC[C@]43C)[C@@H]12" in this assay.
**A:** NO

**Q:** Returns: the outcome recorded for "O=C(Nc1ccc(Br)cc1)C1=NCCCCN1" in this assay.
**A:** NO

**Q:** Returns: the outcome recorded for CCC1S/C(=N\N=C(\C)c2cc3cc(Cl)ccc3o2)N(c2ccccc2)C1=O (stereo not drawn) in this assay.
**A:** NO

**Q:** Returns: the outcome recorded for "COc1ccc(C[n+]2c3ccccc3n3c4ccc(N)cc4ccc32)c(OC)c1OC" in this assay.
**A:** NO

---

Test system: RPMI-8226 leukemia
test: NCI-60 one-dose screen, 48 h (100 = growth as untreated, 0 = no growth, -100 = all killed)
recordedConditions: 10 µM unless noted
The panel holds about 83,000 compounds, 20% with a hit somewhere; the sample as a whole holds those more often. Calls of active or inactive are those of the source. How the source made its calls: active means growth percent below 10; inactive means the rest.
metric: growth

Guide cases for growth, answers given:
{"columns": ["compound", "studyTarget", "growth"],
 "data": [
  ["C#CCO[C@H]1CC(CC#C)(CC#C)C(=O)[C@@H]2[C@H]1[C@H]1C[C@@H]3[C@@]4(C)CCC[C@@](C)(C(=O)OC)[C@@H]4CC[C@@]23C=C1C(C)C", "RPMI-8226 leukemia", "54.2% (inactive)"],
  ["CC(=C(c1ccc(OCCN2CCCCC2)cc1)c1ccc(OCCN2CCCCC2)cc1)c1ccc(Cl)cc1", "RPMI-8226 leukemia", "-61.7% (active)"],
  ["Fc1cc(Nc2ccc3c(OCCCN4CCOCC4)cccc3n2)ccc1Cl", "RPMI-8226 leukemia", "4.49% (active)"],
  ["C[C@@H]1O[C@@H](O[C@@H]2C[C@H](c3ccc4c(c3O)C(=O)C3=C(C4=O)[C@@]4(O)C(=O)C[C@](C)(O)C[C@@]4(O)C=C3)O[C@H](C)[C@H]2O)CC[C@@H]1O[C@H]1C[C@@H](O)[C@H](O)[C@@H](C)O1", "RPMI-8226 leukemia", "95.3% (inactive)"],
  ["C#COc1cccc(Nc2ncnc3cc(NC(=O)[C@@H](C)Cl)ccc23)c1", "RPMI-8226 leukemia", "-6.79% [6.25 µM] (active)"]
]}

**Q:** // growth lookup, key: N#Cc1c(-c2ccccc2)nc(SCC(O)CN2CCOCC2)nc1N1CCOCC1 (stereo not given)
**A:** 105% (inactive)

**Q:** // growth lookup, key: "NS(=O)(=O)c1ccc(-c2cc(-c3nnc(SCC(=O)Nc4ccc(C(=O)/C=C/c5ccc(Cl)cc5)cc4)n3-c3ccccc3)c3ccccc3n2)cc1"
**A:** 10.7% (inactive)

**Q:** // growth lookup, key: CCCn1nc(C(=O)N(C)Cc2ccccc2)c2c1CCC(N1CCc3ccccc31)C2 (stereo not given)
**A:** 90.8% (inactive)

**Q:** // growth lookup, key: "Cc1nn(-c2ccccc2)c(N)c1N=C1NC(=O)/C(=C/c2ccc(Br)cc2)S1"
**A:** 42.3% (inactive)

**Q:** // growth lookup, key: "COc1cc(OC)c(C(=O)C(CN(C)C)CN(C)C)cc1OC"
**A:** -18.1% (active)

---

Tested on: BT-549 breast
test: NCI-60 one-dose screen, 48 h (100 = growth as untreated, 0 = no growth, -100 = all killed)
recordedConditions: 10 µM unless noted
Procedure: Growth inhibition of the BT-549 human tumor cell line is measured as a screen for anti-cancer activity. Cells are grown in 96 well plates and exposed to the test compound for 48 hours. Compounds are tested at a single concentration, which is 10^-5 M for most compounds. The reported endpoint is percent growth (GI% or GIPRCNT), where numbers from 0 - 100% represent growth inhibition, and numbers from -100% - 0 represent cell death. For example, a value of 40 represents 60% growth inhibition. […]
This is part of a sample that, as a whole, favours compounds with a hit. Of some 83,000 tested, about 20% had one in any assay.
metric: growth (%)
Just the number in %, nothing appended.

Guide cases for growth, answers given:
{"columns": ["molecule", "studyTarget", "metric", "dataValue"],
 "data": [
  ["COC(=O)CC[C@@H]1O[C@@H](c2ccc(F)cc2)[C@@H](O)[C@H]1O", "BT-549 breast", "growth", 105],
  ["O=C(N=Nc1c(O)[nH]c2ccccc12)Nc1ccc(F)cc1", "BT-549 breast", "growth", 89.6],
  ["O=[N+]([O-])c1ccc(-c2cn3nc(-c4c[nH]c5ccccc45)sc3n2)cc1", "BT-549 breast", "growth", 99.5],
  ["COc1cc2c(c(OC)c1OC)C(=O)CC(c1cccc(NC(=O)c3ccc(C#N)cc3)c1)O2 (centres undefined)", "BT-549 breast", "growth", 43.7],
  ["COC(=O)C(Cc1ccccc1)NC(=O)c1ccc(NC(=O)c2[nH]c(C)c(Cl)c2Cl)c(OC(C)C)c1 (centres undefined)", "BT-549 breast", "growth", 82.1]
]}

**Q:** So what growth did "CS(=O)(=O)c1ccc(NC(=O)c2ccccc2)nc1" get with BT-549 breast?
**A:** 105

**Q:** So what growth did "COc1cc(/C=C/C(=O)/C=C(O)/C=C/c2ccc(OC(=O)C34CC5CC(CC(C5)C3)C4)c(OC)c2)ccc1OC(=O)C12CC3CC(CC(C3)C1)C2" get with BT-549 breast?
**A:** 104

**Q:** So what growth did O=P(O)(O)OCC1OC(n2cnc3c(NCc4ccco4)ncnc32)C(O)C1O (centres undefined) get with BT-549 breast?
**A:** -12.3

**Q:** So what growth did "O=C1/C(=C/c2ccccn2)NC(=S)N1c1ccccc1Cl" get with BT-549 breast?
**A:** 83.8

---

Test system: RPMI-8226 leukemia
test: NCI-60 one-dose screen, 48 h (100 = growth as untreated, 0 = no growth, -100 = all killed)
recordedConditions: 10 µM unless noted
Compounds without any hit were thinned out: in the full panel of roughly 83,000, 20% have a hit.
Response key: 1 means growth >= 60%; 0 means growth < 60%.

Below are worked cases with known answers.
{"columns": ["smilesStr", "studyTarget", "discreteLabel"],
 "data": [
  ["CC/C=C\\C[C@H](O)C/C=C1/C(=O)C=C[C@@H]1C/C=C\\CCCC(=O)O", "RPMI-8226 leukemia", 0],
  ["COc1ccc(-c2n[nH]c(=O)c3nc(NC(=S)Nc4ccc(Oc5ccccc5)cc4)sc23)cc1", "RPMI-8226 leukemia", 1],
  ["Cc1ccc(Cl)cc1NC(=O)c1sc2nc3c(cc2c1N)C(=O)CCC3", "RPMI-8226 leukemia", 1],
  ["COc1ccc(C(=O)/C=C/c2ccc(Cl)cc2)cc1S(=O)(=O)Nc1c(N)nc(SC)[nH]c1=O", "RPMI-8226 leukemia", 0],
  ["CCOC(=O)/C=C1\\S/C(=N\\Nc2cc(=O)[nH]c3ccccc23)N(c2ccccc2)C1=O", "RPMI-8226 leukemia", 1],
  ["CN1CCN(C(=O)[C@@]2(C)CC[C@]3(C)CC[C@]4(C)C(=CC[C@@H]5[C@@]6(C)CCC(=O)NC(C)(C)[C@@H]6CC[C@]54C)[C@@H]3C2)CC1", "RPMI-8226 leukemia", 0]
]}

Shift focus to the following entry.
**Q:** Could you verify whether the entry "C#CCNC(=O)[C@]1(C)CCC[C@@]2(C)[C@H]1CC=C1C=C(C(C)C)CC[C@@H]12" shows growth of no less than 60%?
**A:** 1

---

Tested on: HOP-62 NSCLC
test: NCI-60 one-dose screen, 48 h
recordedConditions: 10 µM unless noted
Compounds without any hit were thinned out: in the full panel of roughly 83,000, 20% have a hit. The source made the active and inactive calls. Rule for the calls: active = growth percent below 10; inactive = the rest.
// allowed return values: active, inactive

Below are worked cases with known answers.
{"columns": ["compound", "discreteLabel"],
 "data": [
  ["C=C1C(=O)O[C@H]2[C@H]1CC/C(COC(=O)c1cc3cc(Cl)ccc3[nH]1)=C\\CC[C@@]1(C)O[C@@H]21", "active"],
  ["Fc1ccc2[nH]cc(-c3nc(-c4c[nH]c5ccncc45)cs3)c2c1", "active"],
  ["C[C@]1(O)CC(=O)[C@]2(O)C3=C(C=C[C@]2(O)C1)C(=O)c1c(O)cccc1C3=O", "inactive"],
  ["COc1cc(OC)c(C(=O)C(CN(C)C)CN(C)C)cc1OC", "inactive"],
  ["COc1ccc(-c2nn(-c3ccccc3)cc2/C=C/C(=O)NNC(=O)Nc2ccc(C)cc2)cc1", "inactive"],
  ["O=C(NCc1cccc(CNC(=O)Nc2nc3ccccc3[nH]2)c1)Nc1nc2ccccc2[nH]1", "active"]
]}

**Q:** Returns: the outcome recorded for COc1ccc(C2CC(c3cc(OC)c(OC)c(OC)c3)=NO2)cc1OCCCCOc1cc2c(cc1OC)C(=O)N1CCC[C@H]1C=N2 (some centres undefined) in this assay.
**A:** inactive

**Q:** Returns: the outcome recorded for "Clc1c(Cl)[n+](Cc2ccc3ccccc3c2)cn1Cc1ccc2ccccc2c1" in this assay.
**A:** active

**Q:** Returns: the outcome recorded for "COc1cccc(-c2cc(-c3cccc(Cl)c3)c(C#N)c(=O)[nH]2)c1" in this assay.
**A:** inactive
